# Tested on: Plasma
# PROTOCOL_SUMMARY: Clearance in OF1 mouse plasma at 2 mg/kg, iv
# Type: ADME, organism-based
# Set-up: dose 2 mg/kg, route intravenous
# ASSAY_CONDITIONS: in vivo
ENDPOINT_NAME: clearance (mL/min/kg)
Report the value in mL/min/kg with no unit label.

Q. Consider the molecule `Cc1cc(N2CC[C@H](N3CCC[C@@H]3C)C2)ccc1NC(=O)C1CCOCC1` and give its measured clearance.
A. 30

---

# PROTOCOL_SUMMARY: Distribution coefficient, log D of the compound at pH 7.4
# Type: physicochemical
# ASSAY_CONDITIONS: octanol/water
ENDPOINT_NAME: logD

Q. What value of logD has been reported for the following compound? `Cc1cc(N2CC[C@H](N3CCC[C@@H]3C)C2)ccc1NC(=O)C1CCOCC1`
A. 0.15
